Cited source: the RNAGym collection of RNA variant scans (doi:10.7554/elife.90254)

Exercise: state measured self-cleavage for each of the variants provided.
B1: LINE1-full (parent)
chain: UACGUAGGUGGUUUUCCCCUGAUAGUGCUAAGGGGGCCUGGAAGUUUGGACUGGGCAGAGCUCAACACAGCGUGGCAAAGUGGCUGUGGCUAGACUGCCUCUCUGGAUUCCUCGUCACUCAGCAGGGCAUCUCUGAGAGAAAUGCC

- Variants of: B1
- protocol_details: self-cleavage, relative activity (ratio to wild type); higher = more cleavage; in vitro, sequencing; the parent is a self-cleaving ribozyme
Answers are plain numbers.

Reference set (6 entries):
biopolymer_sequence	self-cleavage
UACGUAGGUGGUUUUCCCCUGAUAGUGCUAAGGGGGCCUGGAAGUUUGGACUGGGCAGAGCUCAACACAGCGUGGCAAAGUGGCUGUGGCUAGACUGCCUCUCUGGAUACCUCGUCACUCAGCAGGGCAUCUCUGAGAGAGAUGCC [U109A A141G]	1.76
UACGUAGGUGGUUUUCCCCUGAUAGUGCUAAGGGGGCCUGGAAGUUUGGACUGGGCAGAGCUCAACACAGCGUGGCAUAGCGGCUGUGGCUAGACUGCCUCUCUGGAUUCCUCGUCACUCAGCAGGGCAUCUCUGAGAGAAAUGCC [A78U U81C]	1.6
UACGUAGGUGGUUUUCCCCUGAUAGUGCUAAGGGGGCCUGGAAGUUUGGACUGGGCAGAGCUCAACACAGCGUGGCAAUGCGGCUGUGGCUAGACUGCCUCUCUGGAUUCCUCGUCACUCAGCAGGGCAUCUCUGAGAGAAAUGCC [A79U U81C]	0.4
UACGUAGGUGGGUUUCCCCUGAUAGUGCUAAGGGGGCCUGGAAGUUUGGACUGGGCAGAGCUCAACACAGCGUGGCAAAGUGGCUGUGGCUAGGCUGCCUCUCUGGAUUCCUCGUCACUCAGCAGGGCAUCUCUGAGAGAAAUGCC [U12G A94G]	0.42
UACGUAGGUGGUUUUCCCCUGAUAGUGCUAAGGGGGCCUGGAAGUUUGGACUGGGCAGAGCUCAACACAGCGUGGCAAAGUGGCUGUGGCUAGACUGCCUCUCUGGAUUCCUCGGCACUCAGCAGGGCAUCUCUGGGAGAAAUGCC [U115G A136G]	1.53
UACGUAGGUGGUUUUCCCCUGAUAGUGCUAAGGGGUCCUGGAUGUUUGGACUGGGCAGAGCUCAACACAGCGUGGCAAAGUGGCUGUGGCUAGACUGCCUCUCUGGAUUCCUCGUCACUCAGCAGGGCAUCUCUGAGAGAAAUGCC [G36U A43U]	1.24

Items follow; give self-cleavage for each.
1. UACGUAGGUGGUUUUCCCCUGAUAGUGCUAAGGGGGCCUGGAAGUUUGGACUGGGCAGAGCUCAACACGGCGUGGCAAAGUGGCUGUGGCUAGACUGCCUCUCUGGAUUCCUCGUCACUCAGCAGGGCAUCUCUGAGGGAAAUGCC [A69G A138G]
2. UACGUAGGUGGUUUUCCCCUGAUAGUGCUAAGGGGGCCUGGGUGUUUGGACUGGGCAGAGCUCAACACAGCGUGGCAAAGUGGCUGUGGCUAGACUGCCUCUCUGGAUUCCUCGUCACUCAGCAGGGCAUCUCUGAGAGAAAUGCC [A42G A43U]
3. UACGUAGGUGGUUUUCCCCUGAUAGUGCUAAGGGGGCCUGGAAGGUUGGACUGGGCAGAGCUCAACGCAGCGUGGCAAAGUGGCUGUGGCUAGACUGCCUCUCUGGAUUCCUCGUCACUCAGCAGGGCAUCUCUGAGAGAAAUGCC [U45G A67G]
4. UACGUAGGUGGUAUUCCCCUGAUAGUGCUAAGGGGGCCUGGAAGUUGGGACUGGGCAGAGCUCAACACAGCGUGGCAAAGUGGCUGUGGCUAGACUGCCUCUCUGGAUUCCUCGUCACUCAGCAGGGCAUCUCUGAGAGAAAUGCC [U13A U47G]

1: 0.56; 2: 1.56; 3: 0.45; 4: 0.38
